Cited source for all entries: paper PMC7826789

In this section we review reported Percent Control values for a set of compounds.
Tested on: PIP5K1C
statedConditions: Compound Concentration (nM):1000;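 further: KINOMEscan scanMAX binding as percent activity remaining versus control; lower means stronger binding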
Express the reported value numerically, then name its unit.

Solved cases (2 shown):
INSERT INTO results (compound, assayreadout, endpointresult) VALUES
  ('Cc1cc(O)cc(C)c1/C=C/c1cncc(C(N)=O)c1 [GW435821X]', 'Percent Control', '67%'),
  ('COc1ccc(COc2ccc(Cc3cnc(N)nc3N)cc2OC)cc1 [GW632580X]', 'Percent Control', '100%');

Q: Query (compound): CN1CCN(C(=O)c2ccc(NC(=O)Nc3ccc(N(C)c4ccnc(Nc5ccc(CS(C)(=O)=O)cc5)n4)cc3)cc2)CC1.Cl [GW830263A] ; field requested: Percent Control
Ans: 97%

Q: Query (compound): COc1cc(N2CCN(C(C)C)CC2)ccc1Nc1nc(Nc2ccc(F)cc2C(=O)NC[C@@H](O)CO)c2cc[nH]c2n1 [GSK1392956A] ; field requested: Percent Control
Ans: 100%

---

In this section we review reported Percent Control values for a set of compounds.
System: ERK1
Construct: gene MAPK3
statedConditions: Compound Concentration (nM):1000
Please state the figure in %; there is no need to write the unit.

Solved cases (8 shown):
INSERT INTO assay_data (compound, assayreadout, endpointresult) VALUES
  ('COc1ccc2[nH]c3c4[nH]c5ccc(OC)cc5c4c4c(c3c2c1)C(=O)NC4=O [GW296115X]', 'Percent Control', 85),
  ('CCc1ccc(Oc2nccc(-c3c(-c4ccc(F)cc4)ncn3C3CCNCC3)n2)cc1', 'Percent Control', 92),
  ('COc1cc2ncn(-c3cc(O[C@H](C)c4ccccc4Cl)c(C(N)=O)s3)c2cc1OC [GSK237701A]', 'Percent Control', 100),
  ('COc1cc(/C=N/Nc2ncnc3[nH]ncc23)ccc1O [GW578748X]', 'Percent Control', 100),
  ('Nc1ncnc2occ(-c3ccc(NC(=O)Nc4cc(C(F)(F)F)ccc4F)cc3)c12 [GW770249X]', 'Percent Control', 100),
  ('CN1CCN(C(=O)c2ccc(NC(=O)Nc3ccc(N(C)c4ccnc(Nc5ccc(CS(C)(=O)=O)cc5)n4)cc3)cc2)CC1.Cl [GW830263A]', 'Percent Control', 100),
  ('Cl.c1ccc(Cc2nc3ccc(Nc4ncnc5ccccc45)cc3[nH]2)cc1 [GR269666A]', 'Percent Control', 100),
  ('Cl.O=C(Nc1ccc(Oc2ccc3[nH]c(NC(=O)c4ccco4)nc3c2)cc1)Nc1cc(C(F)(F)F)ccc1F [GW683134A]', 'Percent Control', 100);

Q: Query (compound): CCS(=O)(=O)c1ccc(OC)c(Nc2ncc(-c3cccc(F)c3)o2)c1 [GW621970X] ; field requested: Percent Control
Ans: 100

Q: Query (compound): NS(=O)(=O)c1ccc(N/N=C2\C(=O)Nc3ccc(-c4cnco4)cc32)cc1 ; field requested: Percent Control
Ans: 75

Q: Query (compound): NS(=O)(=O)c1ccc(N/N=C2\C(=O)Nc3ccc(C(=O)NCCc4c[nH]cn4)cc32)cc1 [GW300660X] ; field requested: Percent Control
Ans: 100

Q: Query (compound): CCS(=O)(=O)c1ccc(OC)c(Nc2ncc(-c3cccc(OC)c3)o2)c1 [GW580509X] ; field requested: Percent Control
Ans: 100

Q: Query (compound): COc1cccc(-c2c[nH]c3c(N/N=C/c4ccncc4)ncnc23)c1 [GW814408X] ; field requested: Percent Control
Ans: 100

Q: Query (compound): COc1cc(C=NNc2ncnc3c2cnn3-c2ccccc2)ccc1O [GW513184X] ; field requested: Percent Control
Ans: 100

Q: Query (compound): Cc1cc(O)cc(C)c1/C=C/c1cncc(C(N)=O)c1 [GW435821X] ; field requested: Percent Control
Ans: 100

Q: Query (compound): Cl.O=C(Nc1ccc(Oc2ccc3[nH]c(NC(=O)c4ccccc4)nc3c2)cc1)Nc1cc(C(F)(F)F)ccc1F [GW709042A] ; field requested: Percent Control
Ans: 100
